Ref: the supplement of paper PMC10567573

B1: KLHL13 (parent)
chain: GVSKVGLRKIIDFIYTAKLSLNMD

- Variants of: B1
- procedure-details: protein stability index of a GFP-peptide fusion (GPS, HEK-293T) (PSI 1-6); higher = more stable;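 note: lentivirally expressed fusions sorted by FACS into six bins by GFP to DsRed ratio, PSI derived from sequencing read proportions per bin multiplied by bin number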
- run-parameters: c terminus: a fixed tail appended
# label = fulfilled if protein stability index >= 3 else not fulfilled

Worked examples, 3 variants total:
primary-sequence	class-name
GVSKVGLRKIIDFIYTAKLSLRMD [N22R]	not fulfilled
GVSKVGLRKIIDFIYTGKLSLNMD [A17G]	fulfilled
GVSKVGLKKIIDFIYTAKLSLNMD [R8K]	fulfilled

Query: Hi, just wondering whether GVTKVGLRKIIDFIYTAKLSLNMD [S3T] shows protein stability index of 3 or higher.
Reply: not fulfilled

Query: Hi, just wondering whether GVSKVGLRKIIDFIYTAKLSLNSD [M23S] shows protein stability index of 3 or higher.
Reply: not fulfilled

Query: Hi, just wondering whether GVSKVGLRKIIDFIGTAKLSLNMD [Y15G] shows protein stability index of 3 or higher.
Reply: not fulfilled

Query: Hi, just wondering whether GVSCVGLRKIIDFIYTAKLSLNMD [K4C] shows protein stability index of 3 or higher.
Reply: not fulfilled

Query: Hi, just wondering whether GVSKVGLRKIIDFIYTAKHSLNMD [L19H] shows protein stability index of 3 or higher.
Reply: not fulfilled
